System: Escherichia coli TOP10
experiment_summary: shrunken log2 fold change of peptide-encoding DNA abundance (4.5 h post-induction vs induction); higher = less antimicrobial activity (less host growth inhibition)
condition_label: time post-induction: 4.5 h; library: site-saturation at positions 5, 18, 19, 20
experimental_readout: shrunken log2 fold change
I only need the number, thanks.

RRIRTRPPRLPRPRPRPFIDPRP: -1.15

## Input I'd like to know its shrunken log2 fold change. The sequence in question is RRIRIRPPRLPRPRPRPKVKPRP
## Output -0.127

## Input Next sequence up: RRIRFRPPRLPRPRPRPYYPPRP
## Output -1.19

###

Catalogue of shrunken log2 fold change readings, one per entry.
Tested on: Escherichia coli TOP10
experiment_summary: shrunken log2 fold change of peptide-encoding DNA abundance (4.5 h post-induction vs induction); higher = less antimicrobial activity (less host growth inhibition)
condition_label: time post-induction: 4.5 h; library: site-saturation at positions 5, 18, 19, 20
Please reply with the number alone, leaving off any unit.

Below are worked cases with known answers.
RRIRIRPPRLPRPRPRPEWMPRP: -0.0985
RRIRFRPPRLPRPRPRPRICPRP: 0.0102
RRIRRRPPRLPRPRPRPYTPPRP: -0.225
RRIRMRPPRLPRPRPRPVRLPRP: 0.116

Now consider a different sequence.
## Input I would be grateful if you could share the reported shrunken log2 fold change for RRIRSRPPRLPRPRPRPMIHPRP .
## Output -0.0892

###

Tested on: Escherichia coli TOP10
experiment_summary: shrunken log2 fold change of peptide-encoding DNA abundance (4.5 h post-induction vs induction); higher = less antimicrobial activity (less host growth inhibition)
condition_label: time post-induction: 4.5 h; library: site-saturation at positions 5, 18, 19, 20
// reported shrunken log2 fold change per item
Answer field: number only, no words.

RRIRPRPPRLPRPRPRPVFAPRP: 0.155
RRIRKRPPRLPRPRPRPHKLPRP: 0.00078
RRIRGRPPRLPRPRPRPKDMPRP: 0.213
RRIRLRPPRLPRPRPRPYTAPRP: -0.863
RRIRTRPPRLPRPRPRPHFVPRP: -0.239

## Input What does the data say about its shrunken log2 fold change? Entry: RRIRNRPPRLPRPRPRPAWQPRP
## Output -0.0152

## Input Consider next the sequence RRIRVRPPRLPRPRPRPQTQPRP in the same way.
## Output 0.104

## Input Quick one: RRIRVRPPRLPRPRPRPFHKPRP
## Output -0.385

###

Tested on: Escherichia coli TOP10
experiment_summary: shrunken log2 fold change of peptide-encoding DNA abundance (4.5 h post-induction vs induction); higher = less antimicrobial activity (less host growth inhibition)
condition_label: time post-induction: 4.5 h; library: site-saturation at positions 5, 18, 19, 20
shrunken log2 fold change reference
Keep it simple and answer with nothing but the number.

RRIRIRPPRLPRPRPRPNGKPRP: -0.229
RRIRQRPPRLPRPRPRPQVSPRP: 0.301
RRIRSRPPRLPRPRPRPIWHPRP: -0.271
RRIRMRPPRLPRPRPRPGHIPRP: 0.0817
RRIRDRPPRLPRPRPRPLYGPRP: -0.105
RRIRDRPPRLPRPRPRPRNWPRP: 0.615
RRIRSRPPRLPRPRPRPAFAPRP: 0.414
RRIRLRPPRLPRPRPRPRTSPRP: 0.288
RRIRDRPPRLPRPRPRPILCPRP: 0.0322
RRIRERPPRLPRPRPRPRMFPRP: 0.00669

## Input Return reported shrunken log2 fold change; argument: RRIRPRPPRLPRPRPRPDYVPRP
## Output -0.343

## Input Do the same for RRIRKRPPRLPRPRPRPKECPRP please
## Output 0.121

## Input What do we get for RRIRVRPPRLPRPRPRPGAHPRP ?
## Output 0.0262

## Input Now give it for RRIRWRPPRLPRPRPRPYYTPRP too.
## Output -0.899

## Input Proceed to RRIRMRPPRLPRPRPRPKMAPRP
## Output 2.29

###

System: Escherichia coli TOP10
experiment_summary: shrunken log2 fold change of peptide-encoding DNA abundance (4.5 h post-induction vs induction); higher = less antimicrobial activity (less host growth inhibition)
condition_label: time post-induction: 4.5 h; library: site-saturation at positions 5, 18, 19, 20
experimental_readout: shrunken log2 fold change
Provide a numeric answer; units are not to be included.

In the examples that follow, each entry is paired with its recorded shrunken log2 fold change.
RRIRNRPPRLPRPRPRPSTHPRP: -0.274
RRIRWRPPRLPRPRPRPEPSPRP: 0.39
RRIRTRPPRLPRPRPRPGDLPRP: -0.0395
RRIRFRPPRLPRPRPRPRDQPRP: 0.0987
RRIRVRPPRLPRPRPRPGRRPRP: 0.236
RRIRIRPPRLPRPRPRPGGWPRP: 0.56
RRIRRRPPRLPRPRPRPYLEPRP: -0.298
RRIRIRPPRLPRPRPRPCYGPRP: -0.202
RRIRQRPPRLPRPRPRPNDFPRP: 0.0233
RRIRCRPPRLPRPRPRPPHNPRP: 0.919

## Input Query (sequence): RRIRGRPPRLPRPRPRPNKKPRP ; field requested: shrunken log2 fold change
## Output 0.0152

## Input Param item: RRIRLRPPRLPRPRPRPQWHPRP
## Output -0.193

## Input // same read-out, input: RRIRFRPPRLPRPRPRPHKVPRP
## Output -0.196

## Input Then RRIRTRPPRLPRPRPRPALKPRP ?
## Output 0.206

## Input Request: RRIRSRPPRLPRPRPRPRNNPRP
## Output -0.212

###

Tested on: Escherichia coli TOP10
experiment_summary: shrunken log2 fold change of peptide-encoding DNA abundance (4.5 h post-induction vs induction); higher = less antimicrobial activity (less host growth inhibition)
condition_label: time post-induction: 4.5 h; library: site-saturation at positions 5, 18, 19, 20
experimental_readout: shrunken log2 fold change
# respond with the number and nothing more

Here's what some known entries look like.
RRIRYRPPRLPRPRPRPPDHPRP: 0.0391
RRIRYRPPRLPRPRPRPQVQPRP: -0.0106
RRIRSRPPRLPRPRPRPEQYPRP: -0.256
RRIRYRPPRLPRPRPRPPNSPRP: -0.384
RRIRKRPPRLPRPRPRPYVWPRP: -0.36

## Input I am curious: what shrunken log2 fold change value has been reported for RRIRWRPPRLPRPRPRPFKLPRP ?
## Output -0.044

## Input Similarly, RRIRLRPPRLPRPRPRPLHWPRP ?
## Output 1.5

## Input What do you have for RRIRPRPPRLPRPRPRPHNFPRP ?
## Output 0.0735

## Input What do we get for RRIRVRPPRLPRPRPRPMTCPRP ?
## Output -0.141

## Input Now this one: RRIRGRPPRLPRPRPRPKCHPRP
## Output 0.78

###

Measured shrunken log2 fold change, listed per entry.
Tested on: Escherichia coli TOP10
experiment_summary: shrunken log2 fold change of peptide-encoding DNA abundance (4.5 h post-induction vs induction); higher = less antimicrobial activity (less host growth inhibition)
condition_label: time post-induction: 4.5 h; library: site-saturation at positions 5, 18, 19, 20
No unit in the answer, please; the number alone is enough.

Reference set, count: 6
RRIRVRPPRLPRPRPRPCCWPRP: -0.087
RRIRSRPPRLPRPRPRPYWYPRP: -1.45
RRIRGRPPRLPRPRPRPHLRPRP: -0.148
RRIRQRPPRLPRPRPRPINVPRP: -0.0732
RRIRIRPPRLPRPRPRPEMNPRP: -0.0353
RRIRNRPPRLPRPRPRPHMHPRP: -0.582

## Input GET /values?readout=shrunken log2 fold change&item= RRIRPRPPRLPRPRPRPHNDPRP
## Output -0.566

## Input // same read-out, input: RRIRPRPPRLPRPRPRPDASPRP
## Output 0.37

## Input Note, next up: RRIRKRPPRLPRPRPRPCETPRP
## Output -0.0599

## Input Also RRIRCRPPRLPRPRPRPNWNPRP , if possible.
## Output -0.514

## Input Now give it for RRIRGRPPRLPRPRPRPTPMPRP too.
## Output 0.887

## Input Similarly, RRIRWRPPRLPRPRPRPKDSPRP ?
## Output 0.118

###

Attribute: shrunken log2 fold change
System: Escherichia coli TOP10;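 note: peptides expressed intracellularly from a pBAD plasmid library in pooled LB shake-flask culture, induced with 0.3% L-arabinose, DNA abundance read by NGS, three biological replicates, DESeq2 with apeglm shrinkage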
experiment_summary: shrunken log2 fold change of peptide-encoding DNA abundance (4.5 h post-induction vs induction); higher = less antimicrobial activity (less host growth inhibition)
condition_label: time post-induction: 4.5 h; library: site-saturation at positions 5, 18, 19, 20
// return a plain number; no unit text

The following sequences have reported results that may help.
RRIRDRPPRLPRPRPRPNFPPRP: -0.0273
RRIRQRPPRLPRPRPRPFSEPRP: -0.477
RRIRCRPPRLPRPRPRPNDSPRP: -0.221

Note: attention shifts to another entry.
## Input Hi! What's the reported shrunken log2 fold change for RRIRNRPPRLPRPRPRPCDKPRP on Escherichia coli TOP10?
## Output 0.14
